- Measured Target: TDP-43 (Homo sapiens, UniProt Q13148 1-414)
- Sequence (Q13148 whole entry): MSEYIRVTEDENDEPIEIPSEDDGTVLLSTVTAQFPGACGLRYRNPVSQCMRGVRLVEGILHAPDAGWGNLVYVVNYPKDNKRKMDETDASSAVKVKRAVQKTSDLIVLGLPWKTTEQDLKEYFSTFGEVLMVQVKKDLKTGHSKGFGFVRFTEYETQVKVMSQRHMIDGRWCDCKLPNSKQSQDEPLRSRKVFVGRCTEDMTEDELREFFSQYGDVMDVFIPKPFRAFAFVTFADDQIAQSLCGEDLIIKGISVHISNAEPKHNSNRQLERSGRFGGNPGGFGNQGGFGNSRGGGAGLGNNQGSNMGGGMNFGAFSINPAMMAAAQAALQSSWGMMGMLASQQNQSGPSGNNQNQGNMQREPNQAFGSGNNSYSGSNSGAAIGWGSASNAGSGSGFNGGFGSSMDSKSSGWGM
- Protocol Details: RNA Bind-n-Seq with designed 260-mer pool; 25 mM Tris-HCl, 150 mM KCl, 3 mM MgCl2, BSA (printed 500 mg/mL), 20 units/mL SUPERase IN; pH not stated; 500 nM RNA pool, 1 h, 4 C; TDP-43 5, 50, 500 nM; high values mean tight binding
- Test Parameters: protein: recombinant; tags: SBP (GST cleaved off with PreScission; pGEX-GST-SBP)
Over roughly 9,900 sequences, “r (bound/input frequency ratio)” has its median near 0.7; the highest 2% begin near 6.5. Many of the other results were omitted from the sample, so the highest values are more common in it than they were.
Readout Name: binding signal

{"columns": ["Binder", "Readout Name", "Meas Value"],
 "data": [
  ["ENSMUSG00000029636.179|Wasf3 (ssRNA) RNA: GGGAGUUCUACAGUCCGACGAUCGCUUCGAUAUCCGCAUGCUACCCCUCCUGAAGCACAGCUCUCUUCUCUCCUGUUGUCGGCACAUUUUCAAUUUUAAAAAGUACCUCACAAGAUAAACUUGAUUCAGCCAGUUGCCCGGGCAGAGACCUGACUUCCCCUCUCCUGCCCUGAUCCUUUUUACCAAAUGGCGAUUCCAUAGUCCUGGCUGAGGCAGGGGCUCAAAGUCCAGUGUCUGCUUUGCAAUUCUGGAAGGACAGCUGCUUAUUUAAAUAAGUCUGUGAUAUCCGCAGGCUUGGGUUACCUCUUGCGGUCGCACUAGUGUGGAAUUCUCGGGUGUCAAGG", "binding signal", "0.495 R (bound/input frequency ratio)"],
  ["ENSMUSG00000090935.612|Synj2bp (ssRNA) RNA: GGGAGUUCUACAGUCCGACGAUCGCUUCGAUAUCCGCAUGCUAUUUUCUGUGUGGGUGAUUUCAUUUAAUUAAUUGGACAGUCUAGCCACAGGCAACAAAUAGAAAUAGUAUUUGUAAUUAUAGUCUAUGCCAGGGACUGUCUUAAACUGAUUAGUAACACUAUGACUUACCCUGAGAUCUAAGUAUUGCUAUAAAGAGACUGAAGAGGAGAGAAUAAAGUAUUUUCCUAGGACUACAUAGUUGGUAAAAGAGAAUCAUGAUUUAAACUCUGGACUAUGGAUGGCAGUAUCAGUAAUAUUCCCCUCUUGCGGUCGCACUAGUGUGGAAUUCUCGGGUGUCAAGG", "binding signal", "0.0897 R (bound/input frequency ratio)"]
]}

Values compiled from paper PMC12864922.
